test system: Lefty1; test: Lefty1 protein binding to printed compounds – biochemical, small-molecule microarray, 635/667 nm fluorescence, primary screen (AID 1139); settings: fluorescence 635/667, higher = more signal
Threshold check on composite z-score: at or above 0.8 gives true (1), strictly below gives false (0).

| compound | assayed.target | class.assignment |
| --- | --- | --- |
| CC(C)NC(=O)[C@@H]1c2ccccc2C(=O)N(Cc2ccccc2C(F)(F)F)[C@H]1c1ccc(CO)cc1 | Lefty1 | false (0) |
| C[N+](C)(C)CCCC[C@@H]1NC(=O)[C@@H]2C[C@H](C(=O)NCc3ccc(F)cc3)[C@H](c3ccc(O)cc3)N2C1=O | Lefty1 | false (0) |
| NC(=O)N1C(=O)C2C(C1=O)C1C=C(CCCO)C2C(C2CC2)N1Cc1sc2ccccc2c1Cl (stereo not given) | Lefty1 | false (0) |
| CCOC(=O)c1cn(C[C@H](Cc2ccccc2)NC(=O)N[C@H](CO)CCc2oc(C(C)=O)c(C(=O)OC)c2C(=O)OC)nn1 | Lefty1 | true (1) |
| CCCCC(O)C1C=CC2C(=O)N(c3ccccc3)C(=O)C2N1Nc1ccccc1 (stereo not given) | Lefty1 | false (0) |

Say whether COc1ccc(C(O)C2C=CC3C(=O)NC(=O)C3N2Nc2ccc(Cl)cc2Cl)c2ccccc12 (stereo not given) shows composite z-score of 0.8 or more.
false (0)

Could you tell me if the measured composite z-score of CCOC(=O)C[C@H]1[C@H](OC(=O)c2ccccc2-c2ccccc2)[C@@H](NC(=O)C2CCCCC2)c2cc(OCCCO)ccc2N1C(=O)c1ccc2ccccc2n1 reaches 0.8 or more?
true (1)

Is it the case that Cc1ccc(S[C@]2(C(=O)NC3CC3)CC(=O)N(C(C)C)[C@@H]2c2ccc(CO)cc2I)cc1 has composite z-score reaching or exceeding 0.8?
false (0)

Entry COC(=O)[C@@]1(Cc2ccccc2)[C@H]2c3cc(C(=O)N(C)C)n(Cc4ccc(C(F)(F)F)nc4)c3C[C@H]2CN1C(=O)c1ccccc1 : is its composite z-score no less than 0.8?
false (0)

Quick check, composite z-score >= 0.8? COc1ccc(C(O)C2C=CC3C(=O)N(c4ccccc4)C(=O)C3N2Nc2ccc(C#N)cc2)cc1OCc1ccccc1 (stereo not given)
false (0)

Quick check, composite z-score >= 0.8? CC(C)NC(=O)[C@@]1(c2ccc([N+](=O)[O-])cc2)CC(=O)N(CC23CC4CC(CC(C4)C2)C3)[C@@H]1c1ccc(CO)cc1
true (1)

Is it the case that COC(=O)C[C@H]1O[C@@]2(C[C@@H]1[Si](C)(C)C)C(=O)N(C)c1ccccc12 has composite z-score reaching or exceeding 0.8?
false (0)

Quick check, composite z-score >= 0.8? C=C(CCCC)/C(=C/C[C@H](OC(C)=O)c1cccc(OCCO)c1)c1cnc2ccccc2c1
false (0)
